- ASSAY SUMMARY: Photostability, percentage remaining undegraded under illumination or in the dark
- ASSAY CONDITIONS: percentage remaining undegraded after 24 hours illumination
hey, just use fulfilled if measured Photostability 24 hours is less than 30%, otherwise not fulfilled

1) Cc1ccc2c(c1)C(=O)[C@]1(O)CCN(c3ccn4ncnc4c3)C1=N2 [BPN-0027441]: not fulfilled
2) Cc1cc2c(cc1C)C(=O)[C@]1(O)CCN(c3ccc4nc(C#N)ccc4c3)C1=N2 [BPN-0027492]: not fulfilled
3) Cc1ccc2c(c1)C(=O)[C@]1(O)CCN(c3ccc4sc(C)nc4c3)C1=N2 [BPN-0027411]: fulfilled
4) O=C1c2cc(Cl)ccc2N=C2N(c3ccc4sccc4c3)CC[C@@]12O [BPN-0026546]: fulfilled
5) Cc1ccc(N2CC[C@@]3(O)C(=O)c4cc(F)c(C)cc4N=C23)cc1C [BPN-0026607]: not fulfilled
6) Cc1ccc2c(c1)C(=O)[C@]1(O)CCN(c3ccc(C)c(Cl)c3)C1=N2 [BPN-0025254]: not fulfilled
7) Cc1cc2c(cc1C)C(=O)[C@]1(O)CCN(c3ccc(C#N)cc3)C1=N2 [BPN-0026499]: not fulfilled
8) Cc1ccc2cc(N3CC[C@@]4(O)C(=O)c5cc(C)c(C)cc5N=C34)ccc2n1 [BPN-0027490]: fulfilled

Next:
Challenge: Is Photostability 24 hours strictly under 30% for the entry Cc1cc(N2CC[C@@]3(O)C(=O)c4cc(Cl)ccc4N=C23)ccc1C#N [BPN-0026457] ?
Response given: not fulfilled

---

Measured Ki of individual entries
- EXPERIMENTAL TARGET: Rabbit skeletal myosin
- ASSAY SUMMARY: Skeletal muscle myosin II actin-activated ATPase assay
- ASSAY CONDITIONS: 20 nM skeletal muscle myosin II; read-out: SKMMII KI
Please respond with the number in nM and leave the unit unwritten.

1) COc1ccc2cc(N3CC[C@@]4(O)C(=O)c5cc(C)c(C)cc5N=C34)ccc2n1 [BPN-0027250]: 1000

Challenge: Report measured Ki; entry is Cc1ccc2c(c1)C(=O)[C@]1(O)CCN(c3ccc4sc(C)nc4c3)C1=N2 [BPN-0027411]
Response given: 1100

Challenge: Report measured Ki; entry is COc1cc(N2CC[C@@]3(O)C(=O)c4cc(C)c(C)cc4N=C23)ccn1 [BPN-0026709]
Response given: 1300

Challenge: Report measured Ki; entry is Cc1nc2cc(N3CC[C@@]4(O)C(=O)c5cc(F)c(C)cc5N=C34)ccc2o1 [BPN-0027198]
Response given: 880

Challenge: Report measured Ki; entry is Cc1cc2c(cc1C)C(=O)[C@]1(O)CCN(c3ccc4oc(CO)cc4c3)C1=N2 [BPN-0028555]
Response given: 1500

---

- EXPERIMENTAL TARGET: Bovine cardiac myosin (Bos taurus (Bovine), UniProt Q9BE39)
- Sequence (Q9BE39 whole entry): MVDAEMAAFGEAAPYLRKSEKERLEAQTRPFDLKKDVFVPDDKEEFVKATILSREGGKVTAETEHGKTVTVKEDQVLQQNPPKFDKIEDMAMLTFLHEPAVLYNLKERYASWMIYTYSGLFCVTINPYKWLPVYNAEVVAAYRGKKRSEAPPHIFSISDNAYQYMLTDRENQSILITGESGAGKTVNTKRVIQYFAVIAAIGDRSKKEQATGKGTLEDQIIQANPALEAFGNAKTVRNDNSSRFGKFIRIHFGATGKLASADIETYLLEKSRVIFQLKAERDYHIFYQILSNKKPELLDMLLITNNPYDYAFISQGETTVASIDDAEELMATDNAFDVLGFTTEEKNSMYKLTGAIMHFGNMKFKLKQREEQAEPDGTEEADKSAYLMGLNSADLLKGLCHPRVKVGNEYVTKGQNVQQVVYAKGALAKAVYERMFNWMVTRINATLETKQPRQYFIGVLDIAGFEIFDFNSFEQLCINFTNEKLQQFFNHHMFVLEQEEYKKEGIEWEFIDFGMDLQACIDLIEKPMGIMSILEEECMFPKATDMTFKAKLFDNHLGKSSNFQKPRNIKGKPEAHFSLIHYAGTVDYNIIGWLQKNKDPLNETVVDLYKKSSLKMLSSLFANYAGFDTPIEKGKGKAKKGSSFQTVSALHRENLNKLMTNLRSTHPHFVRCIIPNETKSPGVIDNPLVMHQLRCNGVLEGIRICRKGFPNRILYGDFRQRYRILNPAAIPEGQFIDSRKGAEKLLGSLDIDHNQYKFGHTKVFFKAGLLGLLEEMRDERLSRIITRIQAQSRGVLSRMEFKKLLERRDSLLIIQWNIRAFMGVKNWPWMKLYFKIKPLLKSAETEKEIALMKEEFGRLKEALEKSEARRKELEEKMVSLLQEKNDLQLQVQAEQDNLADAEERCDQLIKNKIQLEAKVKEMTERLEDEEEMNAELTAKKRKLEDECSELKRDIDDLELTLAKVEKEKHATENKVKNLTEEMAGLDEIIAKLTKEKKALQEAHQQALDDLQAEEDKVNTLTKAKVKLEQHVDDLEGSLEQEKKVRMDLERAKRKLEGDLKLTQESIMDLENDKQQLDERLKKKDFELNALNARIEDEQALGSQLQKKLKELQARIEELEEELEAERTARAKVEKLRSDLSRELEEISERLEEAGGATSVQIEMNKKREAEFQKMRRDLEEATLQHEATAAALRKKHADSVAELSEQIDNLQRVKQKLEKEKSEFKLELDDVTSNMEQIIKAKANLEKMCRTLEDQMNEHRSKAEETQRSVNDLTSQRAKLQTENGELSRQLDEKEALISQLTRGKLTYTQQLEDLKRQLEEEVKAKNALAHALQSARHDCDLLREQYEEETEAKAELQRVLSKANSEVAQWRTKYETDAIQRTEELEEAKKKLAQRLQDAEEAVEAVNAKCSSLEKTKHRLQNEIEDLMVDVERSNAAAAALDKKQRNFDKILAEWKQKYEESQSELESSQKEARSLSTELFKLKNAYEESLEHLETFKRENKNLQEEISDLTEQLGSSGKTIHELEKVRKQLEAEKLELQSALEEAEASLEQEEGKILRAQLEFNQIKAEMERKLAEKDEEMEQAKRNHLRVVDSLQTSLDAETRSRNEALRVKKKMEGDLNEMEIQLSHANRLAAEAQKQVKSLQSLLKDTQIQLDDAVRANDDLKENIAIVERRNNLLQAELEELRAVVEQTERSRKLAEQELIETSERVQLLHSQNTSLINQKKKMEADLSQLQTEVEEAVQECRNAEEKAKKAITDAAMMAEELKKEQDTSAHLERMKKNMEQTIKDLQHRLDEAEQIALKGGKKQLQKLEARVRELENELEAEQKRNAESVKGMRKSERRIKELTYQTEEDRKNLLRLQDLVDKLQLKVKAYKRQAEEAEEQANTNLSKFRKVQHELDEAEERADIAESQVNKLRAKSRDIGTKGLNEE
- Sequence (P85100 whole entry partner): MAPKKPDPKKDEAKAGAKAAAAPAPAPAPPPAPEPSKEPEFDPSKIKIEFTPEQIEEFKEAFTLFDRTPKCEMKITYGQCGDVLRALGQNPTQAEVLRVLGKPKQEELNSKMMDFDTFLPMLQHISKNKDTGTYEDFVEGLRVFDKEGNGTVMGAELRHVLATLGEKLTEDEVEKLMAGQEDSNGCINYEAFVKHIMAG
- Sequence (Q3SZE5 whole entry partner): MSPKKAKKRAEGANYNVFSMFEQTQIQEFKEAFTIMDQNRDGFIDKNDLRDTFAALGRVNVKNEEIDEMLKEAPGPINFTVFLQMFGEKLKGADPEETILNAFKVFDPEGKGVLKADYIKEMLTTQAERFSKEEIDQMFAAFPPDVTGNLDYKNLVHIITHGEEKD
- ASSAY SUMMARY: Cardiac muscle myosin II actin-activated ATPase assay (NADH-coupled)
- Type: biochemical
- ASSAY CONDITIONS: cardiac myosin II Ki over nonmuscle myosin II EC50
VALUE TYPE: Ratio CMMII:NMII Ki/EC50

Previously resolved entries follow.
1) Cc1cc2c(s1)N=C1N(c3ccc(C#N)c(Cl)c3)CC[C@@]1(O)C2=O: 6.8
2) Cc1ccc2c(c1)C(=O)[C@]1(O)CCN(c3cc4cccnc4s3)C1=N2: NMII-sel
3) Cc1ccc2c(c1)C(=O)[C@]1(O)CCN(c3ccc4ccncc4c3)C1=N2: NMII-sel
4) Cc1ccc2c(c1)C(=O)[C@@]1(O)C(=N2)N(c2ccccc2)CC1(C)C: NMII-sel

Challenge: Report measured Ratio CMMII:NMII Ki/EC50; entry is CCc1cc2c(s1)N=C1N(c3ccc(Cl)cc3)CC[C@@]1(O)C2=O
Response given: NMII-sel

Challenge: Report measured Ratio CMMII:NMII Ki/EC50; entry is Cc1sc2c(c1C)C(=O)[C@]1(O)CCN(c3cccc(Br)c3)C1=N2
Response given: NMII-sel
